System: Vero E6 infected with SARS-CoV-2
Test: inhibition of SARS-CoV-2 cytopathic effect; higher = more antiviral protection, active = above 15
Conditions: 100 nM; 48 h
Here the recorded inhibition of SARS-CoV-2 cytopathic effect is given for each entry.

Give the measured inhibition of SARS-CoV-2 cytopathic effect of `CN1CCC(CNc2ccc3ncc(-c4cccc(OC(F)(F)F)c4)n3n2)CC1` . 2.97% (inactive)

* * *

Test system: Vero E6 infected with SARS-CoV-2
Assay: SARS-CoV-2 infection rate relative to infected DMSO; higher = more infection, active = 60 or less
Conditions: 24 h
Here the recorded SARS-CoV-2 infection rate is given for each entry.
Respond with the bare value in %.

Sample records with SARS-CoV-2 infection rate:
Give the measured SARS-CoV-2 infection rate of C[C@]12CC/C(=N\OCCN)C[C@@H]1C(=O)C[C@@H]1[C@@H]2CC[C@]2(C)C(=O)CC[C@@H]12 [istaroxime] (0.833333 µM) . 102

Give the measured SARS-CoV-2 infection rate of C=C1C[C@@]2(O)O[C@@]3(C[C@H]2C(C)C)[C@@H](C)CC[C@@H]13 [curcumol] (10 µM) . 106

Give the measured SARS-CoV-2 infection rate of c1cc2c(cc1[C@H]1OC[C@H]3[C@@H]1CO[C@@H]3c1ccc3c(c1)OCO3)OCO2 [sesamin] (10 µM) . 120

Give the measured SARS-CoV-2 infection rate of Nc1nc2c(ncn2[C@@H]2O[C@H](CO)[C@@H](O)[C@H]2O)c(=O)[nH]1 [guanosine] (10 µM) . 106

Give the measured SARS-CoV-2 infection rate of COc1cc2c(CCNC(C)=O)c[nH]c2cc1Cl [6-chloromelatonin] (10 µM) . 104

Next:
Give the measured SARS-CoV-2 infection rate of CC(C)c1cc(-c2ccc(F)c3ccccc23)nc(N)n1 (10 µM) . 108

Give the measured SARS-CoV-2 infection rate of CN(C)[C@@H]1C(O)=C(C(N)=O)C(=O)[C@@]2(O)C(O)=C3C(=O)c4c(O)ccc(Cl)c4[C@@H](O)[C@H]3C[C@@H]12 [demeclocycline] (10 µM) . 96

Give the measured SARS-CoV-2 infection rate of NC(=O)NCCC[C@H](N)C(=O)O [L-citrulline] (10 µM) . 112

Give the measured SARS-CoV-2 infection rate of Cc1noc(C)c1-c1ccc(-c2cc(C(N)=O)c(NC(N)=O)s2)c(O[C@H]2CCNC2)c1 (10 µM) . 104

Give the measured SARS-CoV-2 infection rate of Cc1ncc(CO)c(/C=N/NC(=O)c2ccncc2)c1O [pyridoxal-isonicotinoyl-hydrazone] (10 µM) . 100

Give the measured SARS-CoV-2 infection rate of N#Cc1c[nH]c2c(C(=O)N3CCN(CCc4ccc(F)cc4)CC3)cccc12 [pruvanserin] (10 µM) . 98.5

Give the measured SARS-CoV-2 infection rate of CC1Sc2c(C(=O)O)c(=O)c3cc(F)c(N4CCNCC4)cc3n21 (stereo not drawn) [ulifloxacin] (10 µM) . 106

Give the measured SARS-CoV-2 infection rate of CCOC(=O)CNC(=O)[C@@H]1CCCN1C(=O)Cc1ccccc1 (10 µM) . 104

Reference source: the supplement of paper PMC13380429
